system-tested: tubulin (Sus scrofa, UniProt P02550+P02554)
Construct: Tubulin is purified from pig brain according to published methods
Sequence (P02550 whole entry): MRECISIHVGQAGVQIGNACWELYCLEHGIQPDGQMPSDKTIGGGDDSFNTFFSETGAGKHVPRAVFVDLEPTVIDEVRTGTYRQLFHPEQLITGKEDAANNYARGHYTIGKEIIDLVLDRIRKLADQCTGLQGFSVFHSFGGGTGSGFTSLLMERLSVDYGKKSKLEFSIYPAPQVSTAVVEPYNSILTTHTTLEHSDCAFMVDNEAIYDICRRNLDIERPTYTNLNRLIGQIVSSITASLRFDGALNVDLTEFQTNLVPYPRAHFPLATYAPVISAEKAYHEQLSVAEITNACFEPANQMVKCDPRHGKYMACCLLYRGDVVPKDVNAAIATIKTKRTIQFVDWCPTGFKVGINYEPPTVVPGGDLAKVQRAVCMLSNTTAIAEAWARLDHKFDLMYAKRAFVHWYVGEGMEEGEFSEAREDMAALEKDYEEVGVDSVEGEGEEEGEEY
Sequence (P02554 whole entry): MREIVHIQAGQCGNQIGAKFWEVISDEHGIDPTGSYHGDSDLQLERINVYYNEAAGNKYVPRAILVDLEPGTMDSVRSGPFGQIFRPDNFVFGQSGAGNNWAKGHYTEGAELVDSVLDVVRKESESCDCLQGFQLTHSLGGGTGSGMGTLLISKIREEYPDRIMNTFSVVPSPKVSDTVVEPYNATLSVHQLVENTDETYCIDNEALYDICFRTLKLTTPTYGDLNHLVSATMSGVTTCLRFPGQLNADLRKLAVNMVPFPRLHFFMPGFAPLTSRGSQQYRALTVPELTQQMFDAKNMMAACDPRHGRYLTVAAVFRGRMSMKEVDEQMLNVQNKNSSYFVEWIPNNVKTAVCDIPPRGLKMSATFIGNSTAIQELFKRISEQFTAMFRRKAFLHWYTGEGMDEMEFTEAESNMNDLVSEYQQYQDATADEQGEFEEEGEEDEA
assay-remarks: Evaluation of the inhibition of tubulin polymerization (turbidimetry)
condition: tubulin 10 μm (1 mg/ml), 37° C., turbidity at 350 nm; concentration that inhibits the rate of polymerization by 50%; read-out: Inhibition of tubulin polymerization IC 50 (μm)
Structures can show the parent of a compound that is named as a salt.
quantity: IC50 (µM)

compound: COc1cc(OC)cc(N2CCN(C(=O)c3cc(Br)nn3-c3ccc(Br)cc3)CC2)c1
quantity: IC50
observed-measurement: 17.1

P. CC(=O)Nc1cccc(N2CCN(C(=O)c3cc(C)nn3-c3ccccc3)CC2)c1
Q. Cc1cc(C(=O)N2CCN(c3cc(Cl)c(Br)cc3Br)CC2)n(-c2ccccc2)n1
Q. Hey, which is lower on measured IC50, P or Q ? Output the label that corresponds to your choice.
A. P

P. Cc1cccc(-n2nc(C)cc2C(=O)N2CCN(c3cccc(Cl)c3Cl)CC2)c1
Q. COc1cc(OC)cc(N2CCN(C(=O)c3cc(N4CCCCC4)nn3-c3ccccc3)CC2)c1
Q. Response body: label of entry with the larger IC50; valid values P , Q . Output the label that corresponds to your choice.
A. Q

P. Cc1cc(C(=O)N2CCN(c3cccc(Cl)c3Cl)CC2)n(-c2ccc(F)cc2)n1
Q. COc1cc(OC)cc(N2CCN(C(=O)c3cc(CC#N)nn3-c3ccccc3)CC2)c1
Q. Response body: label of entry with the larger IC50; valid values P , Q . Output the label that corresponds to your choice.
A. P

I. Cc1ccc(-n2nc(C)cc2C(=O)N2CCN(c3cccc(C(F)(F)F)c3)CC2)cc1
II. Cc1cccc(-n2nc(C)cc2C(=O)N2CCN(c3ccccc3)CC2)c1
Q. Hey, which is lower on measured IC50, I or II ? Output the label that corresponds to your choice.
A. II

I. O=C(c1cc(-c2ccccc2)nn1-c1ccccc1)N1CCN(c2cccc(Cl)c2)CC1
II. O=C(c1cc(Br)nn1-c1ccccc1)N1CCN(c2cccc(Cl)c2)CC1
Q. Response body: label of entry with the larger IC50; valid values I , II . Output the label that corresponds to your choice.
A. I

P. COc1cc(OC)cc(N2CCN(C(=O)c3cccn3-c3ccccc3)CC2)c1 [Example E51, hydrochloride]
Q. COC(=O)/C=C/c1cc(C(=O)N2CCN(c3cc(OC)cc(OC)c3)CC2)n(-c2ccccc2)n1
R. COc1cc(OC)cc(N2CCN(C(=O)c3cc(C(C)O)nn3-c3ccccc3)CC2)c1 (stereo not shown)
S. Cc1cc(C(=O)N2CCN(c3cc(Cl)ccc3C)CC2)n(-c2ccc(F)cc2)n1
Q. Sort these compounds on IC50 so the largest reading comes first. Order the labels as requested and list them.
A. S, R, P, Q

A. Cc1cc(C(=O)N2CCN(c3cc(Cl)ccc3C)CC2)n(-c2cccc(Cl)c2)n1
B. Cc1ccc(C)c(-n2nc(C)cc2C(=O)N2CCN(c3cccc(Cl)c3)CC2)c1
C. COc1cccc(-n2nc(C)cc2C(=O)N2CCN(c3cccc(C)c3C)CC2)c1
D. NC(=O)c1cccc(N2CCN(C(=O)c3cc(CO)nn3-c3ccccc3)CC2)c1
Q. // smallest IC50 at index 0, largest at the end Order the labels as requested and list them.
A. B, D, C, A

1. Cc1cc(C(=O)N2CCN(c3ccccc3C)CC2)n(-c2ccc(F)cc2)n1
2. Cc1cc(C(=O)N2CCN(c3ccccc3Cl)CC2)n(-c2ccccc2)n1
3. O=C(c1cc(-c2ccsc2)nn1-c1ccccc1)N1CCN(c2cccc(Cl)c2)CC1
Q. Sort these compounds on IC50 so the largest reading comes first. Order the labels as requested and list them.
A. 2, 1, 3

---

Tested on: HCT116 cells
assay-remarks: Inhibition of proliferation of the human colon tumor line HCT116 ([14C]-thymidine incorporation)
Type: cell-based
condition: Homo sapiens, HCT-116, 48 h, 48 hours at 37° C., read-out: Inhibition of HCT116 proliferation IC 50 (μm)
Method: The proliferation of HCT116 cells is evaluated by measuring the incorporation of [^14C]-thymidine in the following manner. […] [^14C]-thymidine (0.1 μCi/well) and the products to be evaluated are then added. […] 48 hours after incubation at 37° C., the radioactivity incorporated into the cells is measured by counting the plate in a TRI-LUX counter (Wallac). […]
quantity: IC50 (nM)

Solved cases (5 shown):
compound: Cc1cccc(N2CCN(C(=O)c3cc(C)nn3-c3cccc(C)c3)CC2)c1 [3/50]
IC50, nM: 6.1

compound: Cc1cc(C(=O)N2CCN(c3ccc(F)cc3)CC2)n(-c2cccc(F)c2)n1 [3/92]
IC50, nM: 158

compound: Cc1cccc(N2CCN(C(=O)c3cc(C)nn3-c3ccccc3)CC2C)c1 (stereo not drawn) [3/109]
IC50, nM: 4330

compound: COc1cc(OC)cc(N2CCN(C(=O)c3cc(/C=N\O)nn3-c3ccccc3)CC2)c1 [Example E95]
IC50, nM: 0.17

compound: Cc1cc(C(=O)N2CCN(c3ccccc3C)CC2)n(-c2ccccc2)n1 [3/42]
IC50, nM: 85

P. Cc1cc(C(=O)N2CCN(c3ccsc3)CC2)n(-c2ccccc2)n1 [Example E104]
Q. Cc1cc(C(=O)N2CCN(c3cccc(C(F)(F)F)c3)CC2)n(-c2cccc(F)c2)n1 [3/91]
Q. Response body: label of entry with the larger IC50; valid values P , Q . Output the label that corresponds to your choice.
A. P
(P: 839 nM, Q: 14 nM)

a. Cc1cc(C(=O)N2CCN(c3cc(Cl)ccc3Br)CC2)n(-c2ccccc2)n1 [Example E77]
b. Cc1cc(C(=O)N2CCN(c3ccc(C)c(C)c3)CC2)n(-c2cccc(Cl)c2)n1 [3/66]
c. Cc1cc(C(=O)N2CCN(c3ccc(C)c(C)c3)CC2)n(-c2ccccc2F)n1 [3/86]
d. Cc1cccc(N2CCN(C(=O)c3cc(C)nn3-c3cccc(F)c3)CC2)c1 [3/19]
Q. Sort these compounds on IC50 so the largest reading comes first. Order the labels as requested and list them.
A. c, b, a, d
(c: 385 nM, b: 73 nM, a: 26.7 nM, d: 17 nM)

---

system-tested: tubulin (Sus scrofa, UniProt P02550+P02554)
Construct: Tubulin is purified from pig brain according to published methods; from tissue; host or cells: pig brain
assay-remarks: Evaluation of the inhibition of tubulin polymerization (turbidimetry)
Format: biochemical, pig
condition: tubulin 10 μm (1 mg/ml), 37° C., turbidity at 350 nm; concentration that inhibits the rate of polymerization by 50%; read-out: Inhibition of tubulin polymerization IC 50 (μm)
quantity: IC50 (µM)

A. Cc1cc(C(=O)N2CCN(c3cccc(Cl)c3Cl)CC2)n(-c2cccc(F)c2)n1 [3/99]
B. Cc1cccc(N2CCN(C(=O)c3cc(C)nn3-c3ccc(F)cc3)CC2)c1 [3/57]
Q. Response body: label of entry with the larger IC50; valid values A , B . Output the label that corresponds to your choice.
A. A

a. COc1ccc(Cl)cc1N1CCN(C(=O)c2cc(C)nn2-c2ccccc2)CC1 [3/83]
b. COc1cc(OC)cc(N2CCN(C(=O)c3cc(N4CCOCC4)nn3-c3ccccc3)CC2)c1 [Example E96]
Q. Hey, which is lower on measured IC50, a or b ? Output the label that corresponds to your choice.
A. a

---

system-tested: tubulin (Sus scrofa, UniProt P02550+P02554)
Construct: Tubulin is purified from pig brain according to published methods; from tissue; host or cells: pig brain
assay-remarks: Evaluation of the inhibition of tubulin polymerization (turbidimetry)
Format: biochemical, pig
condition: tubulin 10 μm (1 mg/ml), 37° C., turbidity at 350 nm; concentration that inhibits the rate of polymerization by 50%; read-out: Inhibition of tubulin polymerization IC 50 (μm)
pIC50: −log10 of the molar value.
quantity: pIC50

Solved cases (2 shown):
compound-smiles: COc1cccc(N2CCN(C(=O)c3cc(C)nn3-c3ccccc3F)CC2)c1
pIC50: 5.70
//
compound-smiles: Cc1cc(C(=O)N2CCN(c3cc(Cl)ccc3C)CC2)n(-c2cccc(F)c2)n1
pIC50: 5.74

A. Cc1cccc(N2CCN(C(=O)c3cc(C)nn3-c3cccc(C)c3)CC2)c1
B. Cc1cc(C(=O)N2CCN(c3cccc(Cl)c3)CC2)n(-c2cnccn2)n1
Q. Hey, which is lower on measured pIC50, A or B ? Output the label that corresponds to your choice.
A. B

---

system-tested: tubulin (Sus scrofa, UniProt P02550+P02554)
Construct: Tubulin is purified from pig brain according to published methods
assay-remarks: Evaluation of the inhibition of tubulin polymerization (turbidimetry)
condition: tubulin 10 μm (1 mg/ml), 37° C., turbidity at 350 nm; concentration that inhibits the rate of polymerization by 50%; read-out: Inhibition of tubulin polymerization IC 50 (μm)
quantity: IC50 (nM)

P. Cc1cc(C(=O)N2CCN(c3cccc(C(N)=O)c3)CC2)n(-c2cccnc2)n1
Q. Cc1cc(C(=O)N2CCN(c3cccc(Cl)c3)CC2)n(-c2ccccc2F)n1
R. NC(=O)c1cccc(N2CCN(C(=O)c3cc(C(F)(F)F)nn3-c3ccccc3)CC2)c1
Q. Order these by IC50, descending, and give the full ranking. Order the labels as requested and list them.
A. Q, P, R
